# assay_info: Solubility in deionized water.
# Assay type: physicochemical
# condition_context: read-out: S
I'd appreciate it if you could supply solubility values for the items below.
Report only the number, with the unit mg/mL understood.

Qu. Value lookup for solubility; key = CN1CCC=C(c2nsnc2OCCCCCCCCCCCCOc2nsnc2C2=CCCN(C)C2)C1
Ans. 20

Qu. Value lookup for solubility; key = CN1CCC=C(c2nsnc2OCCCCCCCCCCOc2nsnc2C2=CCCN(C)C2)C1
Ans. 25

###

# subject_of_test: Muscarinic acetylcholine receptor M4 (Homo sapiens, UniProt P08173)
# Sequence (P08173 whole entry): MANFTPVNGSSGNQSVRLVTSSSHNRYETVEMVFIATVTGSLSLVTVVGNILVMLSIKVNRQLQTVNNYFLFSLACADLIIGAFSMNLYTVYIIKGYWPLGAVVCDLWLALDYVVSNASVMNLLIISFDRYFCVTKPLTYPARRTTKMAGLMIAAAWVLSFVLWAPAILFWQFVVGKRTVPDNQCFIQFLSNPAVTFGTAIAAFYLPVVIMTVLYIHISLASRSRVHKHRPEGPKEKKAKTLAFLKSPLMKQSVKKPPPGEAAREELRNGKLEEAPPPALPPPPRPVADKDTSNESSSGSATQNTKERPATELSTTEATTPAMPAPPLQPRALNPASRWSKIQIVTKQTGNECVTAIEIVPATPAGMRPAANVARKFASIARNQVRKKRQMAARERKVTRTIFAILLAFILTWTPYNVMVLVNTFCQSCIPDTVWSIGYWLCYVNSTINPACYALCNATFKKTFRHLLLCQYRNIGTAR
# assay_info: Agonist activity against human M4 muscarinic receptor expressed in RBL-2H3 Mast cells
# Assay type: functional, cell-based
endpoint: EC50 (µM)
Report only the number, with the unit µM understood.

Qu. Value lookup for EC50; key = CN1CCC=C(c2nsnc2OCCOc2nsnc2C2=CCCN(C)C2)C1
Ans. 3.9

###

# assay_info: Maximum release of beta-hexosaminidase was determined as a measure of degranulation
# Assay type: functional
# Design: reference not given here
# if measured Max release < 50%: t  # else: f

Qu. Is Max release of CN1CCC=C(c2nsnc2OCCCCCCCCCCCCOc2nsnc2C2=CCCN(C)C2)C1 strictly below 50%?
Ans. f

Qu. Is Max release of CN1CCC=C(c2nsnc2SCCCCCCCCCCSc2nsnc2C2=CCCN(C)C2)C1 strictly below 50%?
Ans. f

Qu. Is Max release of CN1CCC=C(c2nsnc2SCCCCCCCCCCCCSc2nsnc2C2=CCCN(C)C2)C1 strictly below 50%?
Ans. f

Qu. Is Max release of CN1CCC=C(c2nsnc2OCCCCCCOc2nsnc2C2=CCCN(C)C2)C1 strictly below 50%?
Ans. t

Qu. Is Max release of CN1CCC=C(c2nsnc2OCCCCCCCOc2nsnc2C2=CCCN(C)C2)C1 strictly below 50%?
Ans. t

###

# subject_of_test: Muscarinic acetylcholine receptor M1 (Homo sapiens, UniProt P11229)
# assay_info: Binding affinity towards M1 muscarinic receptor expressed in A9 L cells by displacing [3H](R)-QNB radioligand.
# Assay type: cell-based, L929
endpoint: Ki
Write the numeric value and follow it with the unit.

Qu. Value lookup for Ki; key = CN1CCC=C(c2nsnc2OCCOCCOc2nsnc2C2=CCCN(C)C2)C1
Ans. 4.9 nM

###

# subject_of_test: Muscarinic acetylcholine receptor M1 (Homo sapiens, UniProt P11229)
# Sequence (P11229 whole entry): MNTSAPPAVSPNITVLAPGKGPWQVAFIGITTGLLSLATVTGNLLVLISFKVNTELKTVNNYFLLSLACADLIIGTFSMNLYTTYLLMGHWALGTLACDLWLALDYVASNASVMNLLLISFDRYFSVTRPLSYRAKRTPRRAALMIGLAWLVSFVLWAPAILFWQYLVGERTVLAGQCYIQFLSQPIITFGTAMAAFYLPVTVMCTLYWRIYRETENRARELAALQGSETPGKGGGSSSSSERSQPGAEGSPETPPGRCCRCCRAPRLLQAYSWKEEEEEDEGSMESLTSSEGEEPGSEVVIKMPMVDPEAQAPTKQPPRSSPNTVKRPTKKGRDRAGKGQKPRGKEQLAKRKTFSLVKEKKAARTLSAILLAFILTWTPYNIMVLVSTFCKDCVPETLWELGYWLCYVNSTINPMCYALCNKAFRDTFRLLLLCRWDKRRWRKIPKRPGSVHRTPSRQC
# assay_info: Agonistic activity against M1 muscarinic receptor expressed in NIH 3T3 cells
# Format: functional, cell-based, NIH3T3
endpoint: EC50 (nM)
Report only the number, with the unit nM understood.

Qu. Value lookup for EC50; key = CN1CCC=C(c2nsnc2OCCOCCOCCOCCOc2nsnc2C2=CCCN(C)C2)C1
Ans. 290

###

# subject_of_test: Muscarinic acetylcholine receptor M4 (Homo sapiens)
# assay_info: Agonist activity against M4 muscarinic receptor expressed in RBL-2H3 Mast cells.
# Format: functional, cell-based
endpoint: pEC50
Units for pEC50: none; it is -log10 of a concentration expressed in mol/L.

Qu. Which pEC50 is reported with Muscarinic acetylcholine receptor M4 (Homo sapiens) for this entry: CN1CCC=C(c2nsnc2OCCCCCCCCCCCCOc2nsnc2C2=CCCN(C)C2)C1 ?
Ans. 8.85

Qu. Which pEC50 is reported with Muscarinic acetylcholine receptor M4 (Homo sapiens) for this entry: CN1CCC=C(c2nsnc2OCCOCCOCCOCCOc2nsnc2C2=CCCN(C)C2)C1 ?
Ans. 8.28

Qu. Which pEC50 is reported with Muscarinic acetylcholine receptor M4 (Homo sapiens) for this entry: CN1CCC=C(c2nsnc2OCCCCCCCCCCOc2nsnc2C2=CCCN(C)C2)C1 ?
Ans. 5.96

Qu. Which pEC50 is reported with Muscarinic acetylcholine receptor M4 (Homo sapiens) for this entry: CN1CCC=C(c2nsnc2OCCCCCCCCCOc2nsnc2C2=CCCN(C)C2)C1 ?
Ans. 4.70

Qu. Which pEC50 is reported with Muscarinic acetylcholine receptor M4 (Homo sapiens) for this entry: CN1CCC=C(c2nsnc2SCCCCCCCCCCCSc2nsnc2C2=CCCN(C)C2)C1 ?
Ans. 8.33

Qu. Which pEC50 is reported with Muscarinic acetylcholine receptor M4 (Homo sapiens) for this entry: CN1CCC=C(c2nsnc2SCCCCCCCCCCSc2nsnc2C2=CCCN(C)C2)C1 ?
Ans. 9.22

Qu. Which pEC50 is reported with Muscarinic acetylcholine receptor M4 (Homo sapiens) for this entry: CN1CCC=C(c2nsnc2SCCCCCCCCCCCCSc2nsnc2C2=CCCN(C)C2)C1 ?
Ans. 9.00

###

# subject_of_test: Muscarinic acetylcholine receptor M1 (Homo sapiens)
# assay_info: Binding affinity towards M1 muscarinic receptor expressed in A9 L cells by displacing [3H](R)-QNB radioligand.
# if measured Ki < 2 nM: MET  # else: NOT MET

Qu. Is Ki of CN1CCC=C(c2nsnc2OCCOCCOCCOCCOCCOc2nsnc2C2=CCCN(C)C2)C1 strictly below 2 nM?
Ans. MET

Qu. Is Ki of CN1CCC=C(c2nsnc2SCCCCCCCCCCCCSc2nsnc2C2=CCCN(C)C2)C1 strictly below 2 nM?
Ans. MET

Qu. Is Ki of CN1CCC=C(c2nsnc2SCCCCSc2nsnc2C2=CCCN(C)C2)C1 strictly below 2 nM?
Ans. MET

Qu. Is Ki of CN1CCC=C(c2nsnc2SCCCSc2nsnc2C2=CCCN(C)C2)C1 strictly below 2 nM?
Ans. MET

Qu. Is Ki of CN1CCC=C(c2nsnc2SCCCCCCCCCSc2nsnc2C2=CCCN(C)C2)C1 strictly below 2 nM?
Ans. NOT MET

Qu. Is Ki of CN1CCC=C(c2nsnc2SCCSc2nsnc2C2=CCCN(C)C2)C1 strictly below 2 nM?
Ans. NOT MET

Qu. Is Ki of CN1CCC=C(c2nsnc2SCCCCCCCCSc2nsnc2C2=CCCN(C)C2)C1 strictly below 2 nM?
Ans. NOT MET

Qu. Is Ki of CN1CCC=C(c2nsnc2OCCCCCCCCCCCCOc2nsnc2C2=CCCN(C)C2)C1 strictly below 2 nM?
Ans. MET

Qu. Is Ki of CN1CCC=C(c2nsnc2SCCCCCCCCCCCSc2nsnc2C2=CCCN(C)C2)C1 strictly below 2 nM?
Ans. MET

Qu. Is Ki of CN1CCC=C(c2nsnc2SCCCCCSc2nsnc2C2=CCCN(C)C2)C1 strictly below 2 nM?
Ans. NOT MET

###

# subject_of_test: UniProt:P11229
# condition_context: at 100 µM
I'd appreciate it if you could supply PI metabolism values for the items below.

Qu. Which PI metabolism is reported with UniProt:P11229 for this entry: CN1CCC=C(c2nsnc2OCCCCCCCCCOc2nsnc2C2=CCCN(C)C2)C1 ?
Ans. 27%

Qu. Which PI metabolism is reported with UniProt:P11229 for this entry: CN1CCC=C(c2nsnc2OCCCCCCOc2nsnc2C2=CCCN(C)C2)C1 ?
Ans. 18%

Qu. Which PI metabolism is reported with UniProt:P11229 for this entry: CN1CCC=C(c2nsnc2OCCCCCOc2nsnc2C2=CCCN(C)C2)C1 ?
Ans. -1%

Qu. Which PI metabolism is reported with UniProt:P11229 for this entry: CN1CCC=C(c2nsnc2OCCCCCCCCOc2nsnc2C2=CCCN(C)C2)C1 ?
Ans. 8.2%

Qu. Which PI metabolism is reported with UniProt:P11229 for this entry: CN1CCC=C(c2nsnc2OCCOCCOCCOCCOCCOCCOc2nsnc2C2=CCCN(C)C2)C1 ?
Ans. < 10%

Qu. Which PI metabolism is reported with UniProt:P11229 for this entry: CN1CCC=C(c2nsnc2OCCCCCCCOc2nsnc2C2=CCCN(C)C2)C1 ?
Ans. -3%

Qu. Which PI metabolism is reported with UniProt:P11229 for this entry: CN1CCC=C(c2nsnc2OCCCCOc2nsnc2C2=CCCN(C)C2)C1 ?
Ans. 21%

Qu. Which PI metabolism is reported with UniProt:P11229 for this entry: CN1CCC=C(c2nsnc2OCCOCCOCCOc2nsnc2C2=CCCN(C)C2)C1 ?
Ans. < 10%

Qu. Which PI metabolism is reported with UniProt:P11229 for this entry: CN1CCC=C(c2nsnc2OCCCOc2nsnc2C2=CCCN(C)C2)C1 ?
Ans. 21%

Qu. Which PI metabolism is reported with UniProt:P11229 for this entry: CN1CCC=C(c2nsnc2OCCOCCOCCOCCOc2nsnc2C2=CCCN(C)C2)C1 ?
Ans. 56%

Data origin: ChEMBL document CHEMBL1134318
